Every entry's value here was drawn from patent US6881719B2.

Molecular target: recombinant baculovirus TrkA-extracellular domain protein (TrkA-ECD) (UniProt P04629)
Sequence (P04629 33-423 limits assumed): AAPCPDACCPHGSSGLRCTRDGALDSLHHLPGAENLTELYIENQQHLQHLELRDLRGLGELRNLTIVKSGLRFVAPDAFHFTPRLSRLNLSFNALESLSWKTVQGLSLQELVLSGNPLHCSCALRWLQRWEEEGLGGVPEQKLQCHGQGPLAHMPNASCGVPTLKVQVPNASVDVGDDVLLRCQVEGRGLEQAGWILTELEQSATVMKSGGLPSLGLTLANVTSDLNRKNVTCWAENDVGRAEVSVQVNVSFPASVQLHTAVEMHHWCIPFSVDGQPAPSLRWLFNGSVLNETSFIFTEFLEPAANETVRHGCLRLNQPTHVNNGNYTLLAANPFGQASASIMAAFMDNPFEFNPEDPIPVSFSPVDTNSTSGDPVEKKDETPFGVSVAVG
Experiment: calculated from competition ELISA against mAb 5C3 on immobilized TrkA-ECD
Positions of bridges follow the written chain, without caps; N, C: chain ends. Non-standard residues stand in square brackets, D forms with d. 5‑nitrobenzoyl = N-terminal 5-nitrobenzoyl group, introduced by coupling 2-fluoro-5-nitrobenzoyl chloride; hSer = N[C@@H](CCO)C(=O)O
QUANTITY MEASURED: Kd

{5‑nitrobenzoyl}-EK[hSer]G-OH (bridge N-3) [D3 (EKHse-G-OH), β-turn peptidomimetic cyclic compound] | 2000 nM
